targetSystem: UniProt O43613
method: Intracellular calcium measurement (FLIPR), CHO cells expressing human orexin-1 receptor, 3 nM orexin-A
Assay type: cell-based
testContext: read-out: IC50 OX1
Items are presented alongside their recorded IC50.
Your answer should be a plain number; it is taken to be in nM.

Below are worked cases with known answers.
> print(dat)
                          chemicalstructure  value
1  Cc1c(Cl)cccc1-c1noc([C@@H]2CCCN2C(=O)c2ccc(C(F)(F)F)cc2-n2nccn2)n1    933
2  Cc1ccc(C)c(-c2nc([C@@H]3CCCN3C(=O)c3ccc(Cl)cc3-n3nccn3)no2)c1     77
3  Cc1cc(-n2nccn2)c(C(=O)N2CCC[C@H]2c2noc(-c3cccc(Cl)c3C)n2)cc1Cl     18
4  Cc1ccc(C)c(-c2nc([C@@H]3CCCN3C(=O)c3cc(Cl)ccc3-n3nccn3)no2)c1    134

Task item: // IC50 lookup, key: `COc1cc(C(=O)N2CCC[C@H]2c2cc(-c3ccccc3OC(F)(F)F)on2)c(-n2nccn2)cc1Cl`
Reply: 62

Task item: I would be grateful if you could share the reported IC50 for `O=C(c1cc(Cl)ccc1-n1nccn1)N1CCC[C@H]1c1nc(-c2ccccc2C(F)(F)F)no1` .
Reply: 371

Task item: // IC50 lookup, key: `Cc1ccc(C(=O)N2CCC[C@H]2c2cc(-c3cccc(Cl)c3C)n[nH]2)c(-n2nccn2)c1`
Reply: 255

---

targetSystem: orexin-1 (Homo sapiens (Human), UniProt O43613)
Sequence (O43613 whole entry): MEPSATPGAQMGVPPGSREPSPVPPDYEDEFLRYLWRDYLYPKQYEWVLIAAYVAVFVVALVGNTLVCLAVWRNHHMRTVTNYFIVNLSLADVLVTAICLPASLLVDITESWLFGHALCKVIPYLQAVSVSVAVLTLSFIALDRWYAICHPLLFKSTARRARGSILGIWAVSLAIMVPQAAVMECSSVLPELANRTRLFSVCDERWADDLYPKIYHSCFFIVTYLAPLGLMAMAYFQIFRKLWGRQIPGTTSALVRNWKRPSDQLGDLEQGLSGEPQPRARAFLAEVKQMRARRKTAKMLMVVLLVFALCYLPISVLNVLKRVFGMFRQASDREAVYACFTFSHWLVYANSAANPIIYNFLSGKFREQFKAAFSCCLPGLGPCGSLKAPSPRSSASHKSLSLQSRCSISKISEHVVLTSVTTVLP
method: Intracellular calcium measurement (FLIPR), CHO cells expressing human orexin-1 receptor, 3 nM orexin-A
Format: cell-based
testContext: CHO cells expressing human orexin-1 receptor, FLIPR, 3 nM orexin-A; geometric mean if determined several times; read-out: IC50 OX1
Below, each of the compounds is paired with its reported log10(IC50) value.
Heads up: the numbers are on a log10 scale; they represent IC50 in nM.

Solved cases (5 shown):
> print(dat)
                          chemicalstructure  measurementkind  value
1  COc1cc(C(=O)N2CCC[C@H]2c2nnc(-c3cccc(Cl)c3C)o2)c(-n2nccn2)cc1C      log10(IC50)   2.20
2  Cc1ccc(-n2nccn2)c(C(=O)N2CCC[C@H]2c2nc(-c3cccc(OC(F)(F)F)c3)no2)c1      log10(IC50)   2.45
3  Cc1ccc(-n2nccn2)c(C(=O)N2CCC[C@H]2c2nc(-c3cccc4ccn(C)c34)no2)c1      log10(IC50)   1.72
4  COc1cc(C(=O)N2CCC[C@H]2c2nnc(-c3cccc(F)c3OC)[nH]2)c(-n2nccn2)cc1C      log10(IC50)   1.76
5  Cc1ccc(-n2nccn2)c(C(=O)N2CCC[C@H]2c2nc(-c3ccc4c(c3)OC(F)(F)O4)no2)c1      log10(IC50)   3.27

Task item: Quick one: log10(IC50) for `Cc1ccc(-n2nccn2)c(C(=O)N2CCC[C@H]2c2nc(-c3cccnc3C)no2)c1` ?
Reply: 3.36

Task item: Which log10(IC50) value is on record for `Cc1ccc(-n2nccn2)c(C(=O)N2CCC[C@H]2c2noc(-c3cccc(C(F)(F)F)n3)n2)c1` ?
Reply: 2.40

Task item: Would you kindly share the measured log10(IC50) for `O=C(c1cc(C(F)(F)F)ccc1-n1nccn1)N1CCC[C@H]1c1nc(-c2ccccc2OC(F)(F)F)no1` ?
Reply: 2.38

Task item: What value of measured log10(IC50) is listed for `C[C@@]1(c2nc(-c3ccccc3)no2)CCCN1C(=O)c1ncsc1-c1cccc(Cl)c1` ?
Reply: 2.97

Task item: # query: log10(IC50) of entry `COc1cccc(-c2nc([C@@H]3CCCN3C(=O)c3cc(C)c(C)cc3-n3nccn3)no2)c1C`
Reply: 1.76

---

# pIC50 annotations
targetSystem: human orexin-2 receptor (Homo sapiens (Human))
method: Intracellular calcium measurement (FLIPR), CHO cells expressing human orexin-2 receptor, 3 nM orexin-A
Format: cell-based
testContext: CHO cells expressing human orexin-2 receptor, FLIPR, 3 nM orexin-A; geometric mean if determined several times; read-out: IC50 OX2
Remember the convention: pIC50 equals -log10 of concentration in molar.

Illustrative cases are given below, each with its answer.
> print(dat)
                          chemicalstructure  value
1  CCOc1c(F)cccc1-c1nc([C@@H]2CCCN2C(=O)c2cc(OC)c(F)cc2-n2nccn2)no1   8.22
2  Cc1ccc(C(=O)N2CCC[C@H]2c2noc(-c3cccc(C)c3C)n2)c(-n2nccn2)c1   7.85
3  Cc1ccc(C(=O)N2CCC[C@H]2c2noc(-c3cccc(F)c3C)n2)c(-n2nccn2)c1   7.85
4  COc1cc(C(=O)N2CCC[C@H]2c2nc(-c3ccccc3OC(F)(F)F)no2)c(-n2nccn2)cc1C   8.70
5  Cc1ccc(-n2nccn2)c(C(=O)N2CCC[C@@]2(C)c2nnc(-c3ccccc3OC(F)(F)F)[nH]2)c1   7.55
6  CCOc1ncccc1-c1nnc([C@@H]2CCCN2C(=O)c2cc(OC)c(Cl)cc2-n2nccn2)[nH]1   7.96

Task item: Form field: reported pIC50 of `Cc1ccc(-n2nccn2)c(C(=O)N2CCC[C@H]2c2cnc(-c3cccc(Cl)c3C)[nH]2)c1`
Reply: 6.17

Task item: Please report the recorded pIC50 for `O=C(c1cc(Cl)ccc1-n1nccn1)N1CCC[C@H]1c1nc(-c2ccccc2C(F)(F)F)no1` .
Reply: 6.72

Task item: pIC50 lookup needed for `Cc1ccc(-n2nccn2)c(C(=O)N2CCC[C@H]2c2noc(-c3cc(C(F)(F)F)ccn3)n2)c1` , thanks.
Reply: 5.67

Task item: Need pIC50, item `Cc1c(Cl)cccc1-c1noc([C@@H]2CCCN2C(=O)c2cccnc2-c2ccccn2)n1`
Reply: 7.10

---

targetSystem: orexin-1 (Homo sapiens (Human))
method: Intracellular calcium measurement (FLIPR), CHO cells expressing human orexin-1 receptor, 3 nM orexin-A
Format: cell-based
testContext: CHO cells expressing human orexin-1 receptor, FLIPR, 3 nM orexin-A; geometric mean if determined several times; read-out: IC50 OX1
Reported IC50 by item:

Here's what some known entries look like.
> print(dat)
                          chemicalstructure     value
1  Cc1ccc(-n2nccn2)c(C(=O)N2CCC[C@H]2c2cc(-c3cccnc3OC(C)C)no2)c1   0.08 µM
2  COc1c(F)cccc1-c1noc([C@@H]2CCCN2C(=O)c2ccc(Cl)cc2-n2nccn2)n1  0.065 µM
3  Cc1ccc(-n2nccn2)c(C(=O)N2CCC[C@H]2c2nnc(-c3ccccc3OC(F)(F)F)s2)c1  0.176 µM

Task item: I'd like to know its IC50. The compound in question is `COc1cc(C(=O)N2CCC[C@H]2c2nnc(-c3ccccc3OC)[nH]2)c(-n2nccn2)cc1Cl`
Reply: 0.063 µM

---

Measured concentration at 3 h by item
method: Measurement of brain and systemic concentration after oral administration
Assay type: in vivo
testContext: rat, brain; 3 h after oral administration (100 mg/kg), n=3, male wistar rats; read-out: concentration in brain [B]
Method: Measurement of Brain and Systemic Concentration after Oral Administration: In order to assess brain penetration, the concentration of the compound is measured in plasma ([P]), and brain ([B]), sampled 3 h (or at different time points) following oral administration (e.g. 100 mg/kg) to male wistar rats. The compounds are formulated e.g. in 100% PEG 400. […] All samples are extracted with MeOH and analyzed by LC-MS/MS. Concentrations are determined with the help of calibration curves.
// units = ng/g; emit number, no label

> print(dat)
                          chemicalstructure  resultunits  value
1  Cc1cc(C(=O)N2CCC[C@H]2c2nc(-c3cccc(Cl)c3C)no2)c(-n2nccn2)cc1C         ng/g    483
2  COc1cc(C(=O)N2CCC[C@H]2c2nc(-c3ccccc3OC(F)(F)F)no2)c(-n2nccn2)cc1C         ng/g   3250
3  COc1cc(C(=O)N2CCC[C@H]2c2noc(-c3ccccc3OC(F)(F)F)n2)c(-n2nccn2)cc1C         ng/g   1580
4  C[C@@]1(c2nnc(-c3ccccc3OC(F)(F)F)[nH]2)CCCN1C(=O)c1ccc(Cl)cc1-n1nccn1         ng/g   1120

--- query ---
Task item: Entry `Cc1ccc(C(=O)N2CCC[C@H]2c2nnc(-c3ccccc3OC(F)(F)F)[nH]2)c(-n2nccn2)c1` has what concentration at 3 h?
Reply: 1640

---

targetSystem: human orexin-2 receptor (Homo sapiens (Human), UniProt O43614)
Sequence (O43614 whole entry): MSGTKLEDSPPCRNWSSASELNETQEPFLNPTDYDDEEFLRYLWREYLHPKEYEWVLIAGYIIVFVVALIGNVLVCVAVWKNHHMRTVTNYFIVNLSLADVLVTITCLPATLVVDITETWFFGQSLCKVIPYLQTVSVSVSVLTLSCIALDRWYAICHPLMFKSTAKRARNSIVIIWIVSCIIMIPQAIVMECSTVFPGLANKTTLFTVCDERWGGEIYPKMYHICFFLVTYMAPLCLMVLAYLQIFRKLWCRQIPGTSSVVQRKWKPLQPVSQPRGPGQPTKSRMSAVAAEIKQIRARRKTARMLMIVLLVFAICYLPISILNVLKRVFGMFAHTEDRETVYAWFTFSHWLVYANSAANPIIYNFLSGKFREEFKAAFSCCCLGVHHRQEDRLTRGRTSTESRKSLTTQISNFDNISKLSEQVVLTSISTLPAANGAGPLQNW
method: Intracellular calcium measurement (FLIPR), CHO cells expressing human orexin-2 receptor, 3 nM orexin-A
Type: cell-based
testContext: CHO cells expressing human orexin-2 receptor, FLIPR, 3 nM orexin-A; geometric mean if determined several times; read-out: IC50 OX2
measurementKind: pIC50
Just the number, please; pIC50 means minus log10 of the concentration in mol/L.

Consider the following illustrative entries.
> print(dat)
                          chemicalstructure  measurementkind  value
1  Cc1onc(-c2ccccc2Cl)c1C(=O)N1CCC[C@H]1c1nc(-c2ccccc2OC(F)(F)F)no1            pIC50   5.66
2  COc1ccccc1-c1noc([C@@H]2CCCN2C(=O)c2ccc(C)cc2-n2nccn2)n1            pIC50   6.62
3  COc1cccc(-c2nc([C@@H]3CCCN3C(=O)c3cc(C)c(C)cc3-n3nccn3)no2)c1C            pIC50   8.15
4  Cc1ccc(-c2ccccn2)c(C(=O)N2CCC[C@H]2c2nc(-c3cccc(Cl)c3C)no2)c1            pIC50   7.60
5  Cc1ccc(-n2nccn2)c(C(=O)N2CCC[C@H]2c2nc(-c3c[nH]c4ncccc34)no2)c1            pIC50   7.12

Task item: Any idea what pIC50 was measured for `Cc1ccc(-n2nccn2)c(C(=O)N2CCC[C@H]2c2ncc(-c3ccccc3)[nH]2)c1` ?
Reply: 6.96

Task item: Find the recorded pIC50 belonging to `COc1ccccc1-c1nnc([C@@H]2CCCN2C(=O)c2cc(C)ccc2-n2nccn2)[nH]1` and report it.
Reply: 6.91

Task item: Any idea what its pIC50 is? The compound is `Cc1nc(C(=O)N2CCC[C@H]2c2nc(-c3cccc(Cl)c3C)no2)c(-c2cccc(F)c2)s1`
Reply: 6.95
